What MIC was measured for each of the following?
Test system: Streptococcus pneumoniae
Measurement Description: Growth inhibition of Streptococcus pneumoniae ATCC 49619 incubated in MHB medium with lysed horse blood and 5% CO2 for 24 hrs
Type: organism-based
Enter your answer as a number in µg/mL; do not include the unit.

Task item: Suppose we examine the molecule `CC(C)CCOc1ccc2ccccc2c1-c1c(OCc2cn([C@H](CCCNC(=N)N)C(=O)NCc3ccccc3)nn2)ccc2ccccc12.Cl` ; what MIC value has been reported?
Reply: 8

Task item: Lookup `CC(C)CCOc1ccccc1-c1ccccc1OCc1cn([C@H](CCCNC(=N)N)C(=O)NCCc2ccc(F)cc2)nn1.Cl`
Reply: 4

Task item: Lookup `CC(C)CCOc1ccccc1-c1ccccc1OCc1cn([C@H](CCCNC(=N)N)C(=O)NCc2cc(F)cc(F)c2)nn1.Cl`
Reply: 16

Task item: Lookup `CC(C)CCOc1ccccc1-c1ccccc1OCc1cn([C@H](CCCCN)C(=O)NC2CCCCC2)nn1.Cl`
Reply: 8

Task item: Lookup `CC(C)CCOc1ccccc1-c1ccccc1OCc1cn([C@H](CCCCN)C(=O)NCC2CCCCC2)nn1.Cl`
Reply: 8

Task item: Lookup `CC(C)CCOc1ccc2ccccc2c1-c1c(OCC(=O)N[C@H](CCCNC(=N)N)C(=O)NCCc2ccccc2)ccc2ccccc12.Cl`
Reply: 2

###

Tested on: Staphylococcus aureus
Measurement Description: Growth inhibition of methicillin resistant Staphylococcus aureus NCTC 10442 incubated in MHB medium for 24 hrs
Format: organism-based
What MIC was measured for each of the following?
Enter your answer as a number in µg/mL; do not include the unit.

Task item: GET /values?readout=MIC&system=Staphylococcus aureus&item= `CC(C)CCOc1ccccc1-c1ccccc1OCc1cn([C@H](CCCNC(=N)N)C(=O)NCc2ccccc2)nn1.Cl`
Reply: 8

Task item: Lookup `CC(C)CCOc1ccccc1-c1ccccc1OCc1cn([C@H](CCCNC(=N)N)C(=O)Nc2cccc(F)c2)nn1.Cl`
Reply: 8

Task item: Lookup `CC(C)CCOc1ccccc1-c1ccccc1OCc1cn([C@H](CCCCN)C(=O)NCCc2ccc(F)cc2)nn1.Cl`
Reply: 8

Task item: Lookup `CC(C)CCOc1ccc2ccccc2c1-c1c(OCc2cn([C@H](CCCNC(=N)N)C(=O)NCc3ccccc3)nn2)ccc2ccccc12.Cl`
Reply: 8

Task item: Lookup `CN[C@H](CC(C)C)C(=O)N[C@H]1C(=O)N[C@@H](CC(N)=O)C(=O)N[C@H]2C(=O)N[C@H]3C(=O)N[C@H](C(=O)N[C@H](C(=O)O)c4cc(O)cc(O)c4-c4cc3ccc4O)[C@H](O)c3ccc(c(Cl)c3)Oc3cc2cc(c3O[C@@H]2O[C@H](CO)[C@@H](O)[C@H](O)[C@H]2O[C@H]2C[C@](C)(N)[C@H](O)[C@H](C)O2)Oc2ccc(cc2Cl)[C@H]1O`
Reply: 1

Task item: Lookup `CC(C)CCOc1ccccc1-c1ccccc1OCc1cn([C@H](CCCNC(=N)N)C(=O)N[C@H](CCCCN)Cn2cc(CCc3ccccc3)nn2)nn1.Cl.Cl`
Reply: 8

###

System: Staphylococcus aureus
Measurement Description: Growth inhibition of Staphylococcus aureus ATCC 29213 incubated in MHB broth for 24 hrs
Format: organism-based
Measurement Label: MIC
Please don't drop the unit; write it after the number.

Task item: Suppose we examine the compound `CC(C)CCOc1ccccc1-c1ccccc1OCc1cn([C@H](CCCNC(=N)N)C(=O)NC2CC2)nn1.Cl` ; what MIC value has been reported?
Reply: 16 µg/mL

Task item: Lookup `CC(C)CCOc1ccccc1-c1ccccc1OCc1cn([C@H](CCCCN)C(=O)NC2CCCCC2)nn1.Cl`
Reply: 8 µg/mL

Task item: Lookup `CC(C)CCOc1ccc2ccccc2c1-c1c(OCc2cn([C@H](CCCCN)C(=O)N[C@H](CCCNC(=N)N)C(=O)NCCc3ccccc3)nn2)ccc2ccccc12.Cl.Cl`
Reply: 8 µg/mL

Task item: Lookup `CC(C)CCOc1ccc2ccccc2c1-c1c(OCc2cn([C@H](CCCCN)C(=O)N[C@H](CCCNC(=N)N)C(=O)NCc3ccccc3)nn2)ccc2ccccc12.Cl.Cl`
Reply: 8 µg/mL

Task item: Lookup `COc1cc(NC(=O)[C@@H](CCCNC(=N)N)n2cc(COc3ccccc3-c3ccccc3OCCC(C)C)nn2)cc(OC)c1.Cl`
Reply: 4 µg/mL

Task item: Lookup `CC(C)CCOc1ccc2ccccc2c1-c1c(OCc2cn([C@H](CCCCN)C(=O)N[C@H](CCCNC(=N)N)Cn3cc(CCc4ccccc4)nn3)nn2)ccc2ccccc12.Cl.Cl`
Reply: 4 µg/mL

Task item: Lookup `CC(C)CCOc1ccc2ccccc2c1-c1c(OCc2cn([C@H](CCCCN)C(=O)N[C@H](CCCNC(=N)N)C(=O)N3CCCCC3)nn2)ccc2ccccc12.Cl.Cl`
Reply: 8 µg/mL

Task item: Lookup `CC(C)CCOc1ccc2ccccc2c1-c1c(OCC(=O)N[C@H](CCCNC(=N)N)C(=O)NCCc2ccccc2)ccc2ccccc12.Cl`
Reply: 2 µg/mL

Task item: Lookup `CC(C)CCOc1ccccc1-c1ccccc1OCc1cn([C@H](CCCNC(=N)N)C(=O)Nc2cccc(F)c2)nn1.Cl`
Reply: 4 µg/mL

Task item: Lookup `CC(C)CCOc1ccccc1-c1ccccc1OCc1cn([C@H](CCCNC(=N)N)C(=O)NCc2ccc(C(F)(F)F)cc2)nn1.Cl`
Reply: 16 µg/mL

Task item: Lookup `CC(C)CCOc1ccccc1-c1ccccc1OCc1cn([C@H](CCCNC(=N)N)C(=O)NCCc2ccccc2)nn1.Cl`
Reply: 2 µg/mL

Task item: Lookup `CC(C)CCOc1ccccc1-c1ccccc1OCc1cn([C@H](CCCCN)C(=O)N[C@H](CCCNC(=N)N)Cn2cc(CC3CCCCC3)nn2)nn1.Cl.Cl`
Reply: 4 µg/mL

Task item: Lookup `CC(C)CCOc1ccccc1-c1ccccc1OCc1cn([C@H](CCCCN)C(=O)N[C@H](CCCNC(=N)N)Cn2cc(Cc3ccccc3)nn2)nn1.Cl.Cl`
Reply: 4 µg/mL

###

What MIC was measured for each of the following?
Tested on: Klebsiella pneumoniae
Measurement Description: Growth inhibition of Klebsiella pneumoniae ATCC 700603 incubated for 18 hrs
Format: organism-based

Task item: Suppose we examine the compound `CC(C)CCOc1ccccc1-c1ccccc1OCc1cn([C@H](CCCNC(=N)N)C(=O)NCc2cc(F)cc(F)c2)nn1.Cl` ; what MIC value has been reported?
Reply: > 32 µg/mL

Task item: Lookup `CC(C)CCOc1ccccc1-c1ccccc1OCc1cn([C@H](CCCNC(=N)N)C(=O)Nc2cccc(F)c2)nn1.Cl`
Reply: > 32 µg/mL

Task item: Lookup `CC(C)CCOc1ccc2ccccc2c1-c1c(OCC(=O)N[C@H](CCCNC(=N)N)C(=O)NCc2ccccc2)ccc2ccccc12.Cl`
Reply: > 32 µg/mL

Task item: Lookup `CC(C)CCOc1ccccc1-c1ccccc1OCc1cn([C@H](CCCCN)C(=O)NCc2ccc(C(F)(F)F)cc2)nn1.Cl`
Reply: > 32 µg/mL

Task item: Lookup `CC(C)CCOc1ccc2ccccc2c1-c1c(OCc2cn([C@H](CCCNC(=N)N)C(=O)NCCc3ccccc3)nn2)ccc2ccccc12.Cl`
Reply: > 32 µg/mL

Task item: Lookup `CC(C)CCOc1ccccc1-c1ccccc1OCc1cn([C@H](CCCNC(=N)N)C(=O)N[C@H](CCCCN)Cn2cc(CCc3ccccc3)nn2)nn1.Cl.Cl`
Reply: 16 µg/mL

Task item: Lookup `CC(C)CCOc1ccccc1-c1ccccc1OCc1cn([C@H](CCCNC(=N)N)C(=O)NCCc2ccccc2)nn1.Cl`
Reply: > 32 µg/mL

Task item: Lookup `CC(C)CCOc1ccc2ccccc2c1-c1c(OCc2cn([C@H](CCCNC(=N)N)C(=O)N[C@H](CCCCN)Cn3cc(CCc4ccccc4)nn3)nn2)ccc2ccccc12.Cl.Cl`
Reply: > 32 µg/mL

Task item: Lookup `CC(C)CCOc1ccccc1-c1ccccc1OCc1cn([C@H](CCCCN)C(=O)NCc2ccccc2)nn1.Cl`
Reply: > 32 µg/mL

Task item: Lookup `CC(C)CCOc1ccc2ccccc2c1-c1c(OCc2cn([C@H](CCCNC(=N)N)C(=O)N[C@H](CCCCN)Cn3cc(CC4CCCCC4)nn3)nn2)ccc2ccccc12.Cl.Cl`
Reply: > 32 µg/mL

Task item: Lookup `CC(C)CCOc1ccc2ccccc2c1-c1c(OCc2cn([C@H](CCCCN)C(=O)N[C@H](CCCNC(=N)N)Cn3cc(CCc4ccccc4)nn3)nn2)ccc2ccccc12.Cl.Cl`
Reply: > 32 µg/mL

Task item: Lookup `COc1cc(NC(=O)[C@@H](CCCNC(=N)N)n2cc(COc3ccccc3-c3ccccc3OCCC(C)C)nn2)cc(OC)c1.Cl`
Reply: > 32 µg/mL

Task item: Lookup `CC(C)CCOc1ccccc1-c1ccccc1OCc1cn([C@H](CCCNC(=N)N)C(=O)N[C@H](CCCCN)Cn2cc(CC3CCCCC3)nn2)nn1.Cl.Cl`
Reply: 16 µg/mL

Task item: Lookup `CC(C)CCOc1ccccc1-c1ccccc1OCc1cn([C@H](CCCNC(=N)N)C(=O)NCC2CCCCC2)nn1.Cl`
Reply: > 32 µg/mL

Task item: Lookup `CCCN(CC1CC1)C(=O)[C@@H](CCCNC(=N)N)n1cc(COc2ccccc2-c2ccccc2OCCC(C)C)nn1.Cl`
Reply: > 32 µg/mL

Task item: Lookup `CC(C)CCOc1ccccc1-c1ccccc1OCc1cn([C@H](CCCNC(=N)N)C(=O)NC2CC2)nn1.Cl`
Reply: > 32 µg/mL

Task item: Lookup `CC(C)CCOc1ccc2ccccc2c1-c1c(OCC(=O)N[C@H](CCCNC(=N)N)C(=O)NCCc2ccccc2)ccc2ccccc12.Cl`
Reply: > 32 µg/mL

Task item: Lookup `CC(C)CCOc1ccccc1-c1ccccc1OCc1cn([C@H](CCCNC(=N)N)C(=O)N[C@H](CCCCN)Cn2cc(Cc3ccccc3)nn2)nn1.Cl.Cl`
Reply: 32 µg/mL

Task item: Lookup `CC(C)CCOc1ccccc1-c1ccccc1OCc1cn([C@H](CCCCN)C(=O)NCC2CCCCC2)nn1.Cl`
Reply: > 32 µg/mL

Task item: Lookup `CC(C)CCOc1ccccc1-c1ccccc1OCc1cn([C@H](CCCNC(=N)N)C(=O)Nc2ccccc2)nn1.Cl`
Reply: > 32 µg/mL

Task item: Lookup `CC(C)CCOc1ccccc1-c1ccccc1OCc1cn([C@H](CCCNC(=N)N)C(=O)NCc2ccccc2)nn1.Cl`
Reply: > 32 µg/mL

Task item: Lookup `CC(C)CCOc1ccccc1-c1ccccc1OCc1cn([C@H](CCCNC(=N)N)C(=O)NCc2ccc(C(F)(F)F)cc2)nn1.Cl`
Reply: > 32 µg/mL

Task item: Lookup `CC(C)CCOc1ccccc1-c1ccccc1OCc1cn([C@H](CCCCN)C(=O)NCCc2ccccc2)nn1.Cl`
Reply: > 32 µg/mL

Task item: Lookup `CC(C)CCOc1ccccc1-c1ccccc1OCc1cn([C@H](CCCCN)C(=O)NC2CCCCC2)nn1.Cl`
Reply: > 32 µg/mL

Task item: Lookup `CC(C)CCOc1ccc2ccccc2c1-c1c(OCc2cn([C@H](CCCCN)C(=O)N[C@H](CCCNC(=N)N)C(=O)N3CCCCC3)nn2)ccc2ccccc12.Cl.Cl`
Reply: 16 µg/mL

Task item: Lookup `CC(C)CCOc1ccccc1-c1ccccc1OCc1cn([C@H](CCCCN)C(=O)N[C@H](CCCNC(=N)N)Cn2cc(CC3CCCCC3)nn2)nn1.Cl.Cl`
Reply: 16 µg/mL

Task item: Lookup `CC(C)CCOc1ccccc1-c1ccccc1OCc1cn([C@H](CCCCN)C(=O)NCCc2ccc(F)cc2)nn1.Cl`
Reply: > 32 µg/mL

Task item: Lookup `CC(C)CCOc1ccccc1-c1ccccc1OCc1cn([C@H](CCCNC(=N)N)C(=O)NCCc2ccc(F)cc2)nn1.Cl`
Reply: > 32 µg/mL

Task item: Lookup `CC(C)CCOc1ccccc1-c1ccccc1OCc1cn([C@H](CCCNC(=N)N)C(=O)NC2CCCCC2)nn1.Cl`
Reply: > 32 µg/mL
